FYI, the data here is from patent US20090105292A9.

Parameter pKi: see the listing below.
Biological target: human glucocorticoid receptor protein (GR) (Homo sapiens, UniProt P04150)
Construct: made in house; host or cells: Spodoptera frugiperda Sf21 insect cells (baculovirus)
Sequence (P04150 1-777): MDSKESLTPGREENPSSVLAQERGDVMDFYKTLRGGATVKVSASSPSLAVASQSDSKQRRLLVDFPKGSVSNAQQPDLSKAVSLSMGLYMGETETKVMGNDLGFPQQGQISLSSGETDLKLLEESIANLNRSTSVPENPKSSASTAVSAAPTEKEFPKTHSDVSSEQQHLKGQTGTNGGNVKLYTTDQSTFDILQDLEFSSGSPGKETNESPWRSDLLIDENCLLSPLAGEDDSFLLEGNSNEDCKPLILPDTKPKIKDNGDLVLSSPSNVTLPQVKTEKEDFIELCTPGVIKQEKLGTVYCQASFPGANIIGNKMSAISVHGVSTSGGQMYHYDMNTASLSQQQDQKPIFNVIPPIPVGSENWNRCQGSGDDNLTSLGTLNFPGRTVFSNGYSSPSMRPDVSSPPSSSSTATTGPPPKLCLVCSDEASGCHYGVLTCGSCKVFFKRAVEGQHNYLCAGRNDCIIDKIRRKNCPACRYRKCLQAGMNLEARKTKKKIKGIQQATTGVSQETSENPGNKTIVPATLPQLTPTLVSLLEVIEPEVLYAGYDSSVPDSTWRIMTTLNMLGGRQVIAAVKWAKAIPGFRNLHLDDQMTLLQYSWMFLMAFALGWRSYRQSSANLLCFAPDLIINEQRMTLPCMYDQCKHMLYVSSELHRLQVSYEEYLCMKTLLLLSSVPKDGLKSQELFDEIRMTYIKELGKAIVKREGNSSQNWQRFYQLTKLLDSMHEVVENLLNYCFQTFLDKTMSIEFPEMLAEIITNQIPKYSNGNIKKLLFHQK
Experiment: Glucocorticoid receptor binding assay ([3H]dexamethasone competition, GR lysate)
Details: competition with 2-4 nM [3H]dexamethasone, 16 hours at 4° C., Cheng-Prusoff; read-out: Ki
pKi: −log10 of the molar value.

Reference set, count: 8
compound: COc1c(O)ccc2c1-c1ccc3c(c1/C(=C/c1sccc1CO)O2)C(C)=CC(C)(C)N3
value observed: > 9.00
//
compound: C=CCC(O)c1ccsc1C=C1Oc2ccc(O)c(OC)c2-c2ccc3c(c21)C(C)=CC(C)(C)N3 (single isomer, unassigned; (-)) [Compound 201]
value observed: 8.70 to 9.00
//
compound: COc1c(O)ccc2c1-c1ccc3c(c1/C(=C/c1ccc(C(=O)N4CCCC4)s1)O2)C(C)=CC(C)(C)N3
value observed: 8.70 to 9.00
//
compound: C=CCO/N=C(/C)c1ccsc1/C=C1\Oc2ccc(O)c(OC)c2-c2ccc3c(c21)C(C)=CC(C)(C)N3
value observed: 8.70 to 9.00
//
compound: COc1c(O)ccc2c1-c1ccc3c(c1/C(=C/c1cccc(OCCF)c1)O2)C(C)=CC(C)(C)N3
value observed: 8.70 to 9.00
//
compound: COc1c(O)ccc2c1-c1ccc3c(c1/C(=C/c1cc(Cl)ccc1Cl)O2)C(C)=CC(C)(C)N3
value observed: 8.52 to 8.70
//
compound: COc1c(O)ccc2c1-c1ccc3c(c1/C(=C/c1ccccc1CO)O2)C(C)=CC(C)(C)N3
value observed: 8.70 to 9.00
//
compound: COc1c(O)ccc2c1-c1ccc3c(c1/C(=C/c1cccc(C(F)(F)F)c1F)O2)C(C)=CC(C)(C)N3
value observed: 8.52 to 8.70

pKi for COc1cccc(/C=C2\Oc3ccc(O)c(OC)c3-c3ccc4c(c32)C(C)=CC(C)(C)N4)c1 ?
> 9.00

pKi for COc1c(O)ccc2c1-c1ccc3c(c1/C(=C/c1sccc1CN(C)C)O2)C(C)=CC(C)(C)N3 ?
8.52 to 8.70

pKi for COCc1ccsc1/C=C1\Oc2ccc(O)c(OC)c2-c2ccc3c(c21)C(C)=CC(C)(C)N3 ?
8.70 to 9.00

pKi for CCNC(=O)c1ccsc1/C=C1\Oc2ccc(O)c(OC)c2-c2ccc3c(c21)C(C)=CC(C)(C)N3 ?
8.70 to 9.00

pKi for COc1c(O)ccc2c1-c1ccc3c(c1/C(=C/c1cccc(C)c1C(=O)N1CCCC1)O2)C(C)=CC(C)(C)N3 ?
< 8.52

pKi for COc1c(O)ccc2c1-c1ccc3c(c1/C(=C/c1sccc1C(=O)c1ccsc1)O2)C(C)=CC(C)(C)N3 ?
8.70 to 9.00

pKi for C=CCO/N=C(\C)c1ccsc1/C=C1\Oc2ccc(O)c(OC)c2-c2ccc3c(c21)C(C)=CC(C)(C)N3 ?
8.70 to 9.00

pKi for CCN(C)C(=O)c1ccsc1/C=C1\Oc2ccc(O)c(OC)c2-c2ccc3c(c21)C(C)=CC(C)(C)N3 ?
> 9.00

pKi for COc1c(O)ccc2c1-c1ccc3c(c1/C(=C/c1oc(C)cc1C(=O)N1CCCCC1)O2)C(C)=CC(C)(C)N3 ?
8.70 to 9.00

pKi for COc1c(O)ccc2c1-c1ccc3c(c1/C(=C/c1ccc4c(c1)OCO4)O2)C(C)=CC(C)(C)N3 ?
> 9.00
